# Test system: PfHDP1 homeodomain (GST-tagged)
# assay notes: gcPBM binding intensity (ln(normalized median fluorescence intensity)); higher = stronger DNA binding
Whole data set: some 25,000 sequences, median “ln(normalized median fluorescence intensity)” near 6.7, cut for the highest 2% near 10. The entries come from a sample that favours the highest values as a whole.
gcPBM binding intensity (ln) values, listed per item
Note: the reply should be a number with no unit written.

Examples with their reported gcPBM binding intensity (ln) follow.
TATATATATATATGTGCACACATAATAAAAAAAAAA [CACACA_site3830] = 10.1
TATAAATATAAATACACACACACATCAATACAGATA [CACACA_site5850] = 6.87
TTTGTTAATTATAAATGTACATATTATATATATATA [XGTACX_site8870] = 8.42

# return recorded gcPBM binding intensity (ln) for entry AATTAAAAAATTTATGCACACTTTAAAAAAAAAAAA [CACACA_site5962]
9.66

Answer with reported gcPBM binding intensity (ln) of AAAAAAAAAAAAAACACACACATATAATATATTTAA [CACACA_site1337]
6.35

Given TCTTTCCTTATTAAAACACACAAATACATTATTTAA [CACACA_site2147] , respond with its gcPBM binding intensity (ln).
6.7

Identify gcPBM binding intensity (ln) associated with the sequence `ATATATATATTTAAGGTGCGATTTTGTTATATTTAA`
7.89

Give recorded gcPBM binding intensity (ln). TTTTCATTTTTCTTTACACACATATATATATATATA [CACACA_site2236]
9.23

Indicate the recorded gcPBM binding intensity (ln) value for this sequence: GGTATTTTCACATATAGTACACAAAAATAAAATAAA [XGTACX_site2139]
6.68

Complete the entry with gcPBM binding intensity (ln) for ACATTAAAAAATTGTTTGCACTATATAAAATATTAA [GTGCAC_site9728]
8.82

Supply recorded gcPBM binding intensity (ln) for ACATAAAATAAATATACACACATATGTATATATCAT [CACACA_site7424] here.
6.52

Give me measured gcPBM binding intensity (ln), please, for this sequence: TGTGCCCAAAATTATGCACACACCTAAAATTAATTT [CACACA_site2914]
10.5

Give a short answer stating reported gcPBM binding intensity (ln) for TGGGTGTAGAACAATTGTACTTTGTAAAAATATAAG [XGTACX_site8464] .
6.59

Note down gcPBM binding intensity (ln) recorded for ATAATATATATATATGCATGTACATATTTATCTTTA [TGCATGCA_site32]
6.74

Could you please provide reported gcPBM binding intensity (ln) for AAACGAGAACATAATAAATACATAAATAAATAAATA [GTGCAC_negctrl_site433] ? Thanks!
6.43

Please indicate gcPBM binding intensity (ln) recorded for TGTATGTATTTTCAATGTACATAAAAAAAAAAAAAA [XGTACX_site4397]
6.71

Give a short answer stating reported gcPBM binding intensity (ln) for TATGGAAGAAAATATACACACAAAAAAAAAAAATGT [CACACA_site1486] .
6.58

Provide only the value of recorded gcPBM binding intensity (ln) for GATGATACACAGGTGTTGCACTTAAATGCAGTTCTT [GTGCAC_site9627]
8.13
